# EXPERIMENTAL_SYSTEM: Kappa-type opioid receptor (Homo sapiens, UniProt P41145)
# Sequence (P41145 whole entry): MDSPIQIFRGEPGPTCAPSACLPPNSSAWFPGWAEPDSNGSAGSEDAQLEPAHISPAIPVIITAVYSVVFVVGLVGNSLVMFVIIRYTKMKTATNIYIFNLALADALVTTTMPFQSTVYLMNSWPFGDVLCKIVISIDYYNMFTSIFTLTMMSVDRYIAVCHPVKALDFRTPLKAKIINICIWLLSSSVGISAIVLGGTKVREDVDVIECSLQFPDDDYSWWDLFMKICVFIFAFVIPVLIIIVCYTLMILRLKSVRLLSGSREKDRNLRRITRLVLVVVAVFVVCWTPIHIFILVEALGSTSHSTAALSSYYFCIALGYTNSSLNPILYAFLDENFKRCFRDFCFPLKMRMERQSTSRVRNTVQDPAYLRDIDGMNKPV
# Type: functional
MEASURE_NAME: IC50 (µM)
One number for each entry, in µM.

# CHEMICAL_STRUCTURE, EXPERIMENTAL_SYSTEM, IC50 / µM
data = [
    ("CNc1cc(Cl)c2nonc2c1[N+](=O)[O-]", "Kappa-type opioid receptor (Homo sapiens, UniProt P41145)", 8.48),
]

Note: attention shifts to another entry.
Simply: CCC(=O)OCCNc1cc(Sc2nc3ccccc3[nH]2)c2nonc2c1[N+](=O)[O-] , Kappa-type opioid receptor (Homo sapiens, UniProt P41145), IC50 = 19.1

====

# EXPERIMENTAL_SYSTEM: CAAX prenyl protease 1 (Saccharomyces cerevisiae S288c)
# Sequence (P47154 whole entry): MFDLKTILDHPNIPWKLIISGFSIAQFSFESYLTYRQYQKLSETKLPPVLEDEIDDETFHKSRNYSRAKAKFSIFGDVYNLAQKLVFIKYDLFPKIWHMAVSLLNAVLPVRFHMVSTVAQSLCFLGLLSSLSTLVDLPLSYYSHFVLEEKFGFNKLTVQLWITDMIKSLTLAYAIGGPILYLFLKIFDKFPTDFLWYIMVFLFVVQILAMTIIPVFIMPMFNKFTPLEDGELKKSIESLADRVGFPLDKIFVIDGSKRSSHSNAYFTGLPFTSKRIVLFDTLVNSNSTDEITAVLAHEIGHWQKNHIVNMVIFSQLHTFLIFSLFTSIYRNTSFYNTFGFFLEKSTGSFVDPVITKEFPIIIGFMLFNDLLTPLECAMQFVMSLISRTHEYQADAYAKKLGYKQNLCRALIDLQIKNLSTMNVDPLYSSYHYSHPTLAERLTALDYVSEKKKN
# MEASUREMENT_NOTES: Ste24 protease inhibitors, dose response, biochemical, S. cerevisiae, plate reader, cherry-pick (AID 488815)
Activity calls are given as the source filed them.
So I've got a bunch of compounds here, and I need their AC50 values.

Solved entries:
# CHEMICAL_STRUCTURE, MEASURE_NAME, VALUE
records = [
    ("N#Cc1c(N2CCN(C(=O)c3ccccc3)CC2)nc(-c2ccccc2)c2c1CCCC2", "AC50", "1.6 µM (active)"),
    ("COc1ccc(Cn2c(N)c(S(=O)(=O)c3cccs3)c3nc4ccccc4nc32)cc1", "AC50", "2.79 µM (active)"),
    ("COc1ccc(CNC(=O)c2ccccc2NS(C)(=O)=O)cc1", "AC50", "5.47 µM (active)"),
]

// field: AC50; key: CCOc1c2ccc(C(=O)NCc3ccco3)cc2nn1CCOC ; value = 11.5 µM (active)

====

# Test system: H9c2;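 further: cell death induced by hydrogen peroxide oxidative stress; compound pretreatment for 60 min then peroxide exposure for 2 h; potency is for protecting the cells against peroxide damage rather than for killing them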;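 further: confirmatory concentration-response retest of ultra-high-throughput screening hits for modulation of myocardial damage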
# MEASUREMENT_NOTES: cells
# Format: functional, cell-based
# PARTICULARS: Rattus norvegicus, H9c2, Myocardium
Calls of active or inactive are those of the source.
Hi there, use one of these labels in your reply, thanks! t for active, f for inactive

Completed entries (count: 3):
# CHEMICAL_STRUCTURE, QUALITATIVE_LABEL
records = [
    ("C=CC[C@@H](CC(=O)NCCO)C(=O)NC[C@H](OC(=O)[C@@H](CC=C)Cc1ccc(F)cc1)c1ccccc1", "f"),
    ("COc1ccccc1-c1cc2nc(-c3ccccc3)cc(N3CCN(C(=O)c4ccco4)CC3)n2n1", "f"),
    ("Cc1sc2nc(CSCC(=O)N(C)CC(=O)Nc3ccc(F)cc3)nc(O)c2c1C", "t"),
]

Attention now turns to another entry.
How did this test come out for Cn1c(=O)[nH]c(=O)c2c1nc(N(CCO)Cc1ccccc1)n2CCCc1ccccc1 ? t
